- Assay notes: in vivo pharmacokinetic study
- Parameters: species or system rats
- Details: male, Sprague-Dawley, rat, plasma, iv; Rats, I.V. 1mg/kg
Readout type: Tmax (min)
Give the value in min but do not write min after it.

input: GET /values?readout=Tmax&item= C=CC(=O)Nc1cc(Nc2cc(-c3cccc(NC(=O)c4cc5c(s4)CCCC5)c3C)cn(C)c2=O)ccc1N1CCN(CC)CC1
output: 1.2

* * *

- Target or test system: ITK (Homo sapiens)
- Sequence (Q08881 1-620): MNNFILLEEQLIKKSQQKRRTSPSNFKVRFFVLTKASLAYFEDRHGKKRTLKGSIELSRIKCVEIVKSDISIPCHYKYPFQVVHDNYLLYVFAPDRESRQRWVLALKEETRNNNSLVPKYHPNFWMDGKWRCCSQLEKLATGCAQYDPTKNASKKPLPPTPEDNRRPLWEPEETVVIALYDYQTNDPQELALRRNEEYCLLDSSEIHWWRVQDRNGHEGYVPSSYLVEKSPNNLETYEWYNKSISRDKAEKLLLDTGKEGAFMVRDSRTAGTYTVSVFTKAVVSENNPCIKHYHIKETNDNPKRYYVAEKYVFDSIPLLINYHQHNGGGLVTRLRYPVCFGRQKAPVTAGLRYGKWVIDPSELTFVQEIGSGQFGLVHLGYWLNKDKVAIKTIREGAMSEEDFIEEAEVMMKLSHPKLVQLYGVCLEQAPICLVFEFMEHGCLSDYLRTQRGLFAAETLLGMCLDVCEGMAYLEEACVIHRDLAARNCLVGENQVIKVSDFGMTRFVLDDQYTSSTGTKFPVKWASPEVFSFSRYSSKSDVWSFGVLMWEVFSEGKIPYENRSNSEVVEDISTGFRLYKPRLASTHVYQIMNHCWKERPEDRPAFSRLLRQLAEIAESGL
Readout type: IC50

input: Missing value: IC50, ITK (Homo sapiens), entry C=CC(=O)Nc1cc(Nc2cc(-c3cccc(NC(=O)c4cc5c(s4)CCCC5)c3C)cn(C)c2=O)ccc1N1CCN(CC)CC1 [CHMFL-BTK-85] . Fill in?
output: > 10 µM

Reference source for all entries: paper PMC7490411
